assay: Inhibition of Leishmania mexicana CPB delta CTE mutant using Z-Phe-Arg-7-amido-4-methylcoumarin as substrate preincubated for 2 mins followed by substrate addition by fluorimetric assay
Each entry below carries its recorded pKi.
Enter a number only.

chemical_structure=CC(C)C[C@H](NC(=O)OC(C)(C)C)C(=O)NCC#N quantitative_result=5.8
chemical_structure=N#CCNC(=O)[C@H](Cc1ccccc1)NC(=O)c1ccco1 quantitative_result=6.3
chemical_structure=CC(C)C[C@H](NC(=O)C1(c2ccccc2)CC1)C(=O)NC1(C#N)CC1 quantitative_result=7.2

Item under review: CC(C)(C#N)NC(=O)[C@H](Cc1ccccc1)NC(=O)c1ccccc1 . Reported pKi?
5.7

Try N#CCNC(=O)[C@H](Cc1c[nH]c2ccccc12)NC(=O)c1ccccc1 next.
6.1

Try CC(C)(C)OC(=O)N[C@@H](Cc1cccc(Cl)c1)C(=O)NCC#N next.
5.2

Try N#CCNC(=O)[C@H](Cc1cccc(Cl)c1)NC(=O)c1ccccc1 next.
5.2

Try CC(C)C[C@H](NC(=O)c1cc(C(C)(C)C)nn1C)C(=O)NC1(C#N)CC1 next.
8.3

Try N#CCNC(=O)[C@H](Cc1ccccc1)NC(=O)c1ccccc1 next.
6.6

Try N#CCNC(=O)[C@H](Cc1ccccc1)NC(=O)c1cccs1 next.
6.4

Try N#CCNC(=O)[C@H](Cc1ccccc1)NC(=O)OCc1ccccc1 next.
6.6

Try CC(C)C[C@H](NC(=O)c1ccccc1)C(=O)NC1(C#N)CC1 next.
6.8

Try CC(C)C[C@H](NC(=O)c1cc(C(C)(C)C)nn1C)C(=O)NCC#N next.
7.6

Try N#CCNC(=O)[C@H](Cc1ccccc1)NC(=O)c1c[nH]c(=O)[nH]c1=O next.
6.5

Try CC(C)C[C@H](NC(=O)C(C)(C)c1ccccc1)C(=O)NC1(C#N)CC1 next.
6.4

====

target: cathepsin L (Procathepsin L) (Homo sapiens); assay: Inhibition of human cathepsin L assessed as off rate constant; conditions: human cathepsin L enzyme, read-out: K
Sequence (P07711 whole entry): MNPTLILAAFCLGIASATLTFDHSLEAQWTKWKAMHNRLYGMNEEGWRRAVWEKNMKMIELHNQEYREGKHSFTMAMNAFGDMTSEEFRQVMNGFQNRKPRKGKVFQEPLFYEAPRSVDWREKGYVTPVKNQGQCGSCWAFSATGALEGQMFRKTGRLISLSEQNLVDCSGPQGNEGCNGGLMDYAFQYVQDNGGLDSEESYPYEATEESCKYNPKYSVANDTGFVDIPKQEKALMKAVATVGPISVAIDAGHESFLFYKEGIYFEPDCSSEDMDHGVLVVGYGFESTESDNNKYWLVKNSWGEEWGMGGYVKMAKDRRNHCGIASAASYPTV
reported_property: koff (s⁻¹)
Number in s⁻¹, nothing else.

Item under review: CN(C#N)N(C)C(=O)[C@H](Cc1ccccc1)NC(=O)c1cc(C(C)(C)C)nn1C . Reported koff?
8e-08

====

assay: Inhibition of Leishmania mexicana CPB delta CTE mutant using Z-Phe-Arg-7-amido-4-methylcoumarin as substrate preincubated for 2 mins followed by substrate addition by fluorimetric assay
Please enter 1 where pKi is greater than or equal to 7, and 0 where it is lower.

chemical_structure=N#CC1(NC(=O)C2(NC(=O)c3ccccc3)CCCC2)CC1 classification=0

Exam item: decide whether the reported pKi for CC(C)C[C@H](NC(=O)C1(c2ccccc2)CCC1)C(=O)NC1(C#N)CC1 is at least 7.
1

Try CC(C)(C)OC(=O)N[C@@H](Cc1ccccc1)C(=O)NCC#N next.
0

Try N#CCNC(=O)[C@H](Cc1ccccc1)NC(=O)c1cncnc1 next.
0

Try Cn1nc(C(C)(C)C)cc1C(=O)N[C@@H](Cc1cccc(Cl)c1)C(=O)NCC#N next.
0

Try N#CCNC(=O)[C@H](Cc1ccc(O)cc1)NC(=O)c1ccccc1 next.
0

====

target: Cruzipain (Trypanosoma cruzi); assay: Inhibition of recombinant Trypanosoma cruzi cruzain using Z-Phe-Arg-7-amido-4-methylcoumarin as substrate preincubated for 2 mins followed by substrate addition by fluorimetric assay
Sequence (P25779 whole entry): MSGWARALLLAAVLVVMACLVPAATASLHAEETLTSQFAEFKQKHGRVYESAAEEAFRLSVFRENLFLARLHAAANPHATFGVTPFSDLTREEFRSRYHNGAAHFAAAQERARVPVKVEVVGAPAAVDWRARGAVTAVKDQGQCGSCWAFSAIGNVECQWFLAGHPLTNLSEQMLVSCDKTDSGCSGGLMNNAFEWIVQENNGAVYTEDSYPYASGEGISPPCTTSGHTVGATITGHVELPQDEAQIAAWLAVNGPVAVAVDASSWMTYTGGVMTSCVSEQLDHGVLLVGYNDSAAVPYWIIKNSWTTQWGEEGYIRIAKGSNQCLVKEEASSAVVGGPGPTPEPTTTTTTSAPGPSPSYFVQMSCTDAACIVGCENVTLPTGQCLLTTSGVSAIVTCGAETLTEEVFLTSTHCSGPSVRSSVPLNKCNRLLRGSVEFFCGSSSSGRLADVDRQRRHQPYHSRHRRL
reported_property: pKi
In textbook form, pKi equals minus log to base ten of the concentration in mol/L.

Worked examples follow.
chemical_structure=N#CCNC(=O)[C@H](Cc1ccccc1)NC(=O)c1cncnc1 quantitative_result=5.30
chemical_structure=N#CCNC(=O)[C@H](Cc1ccccc1)NC(=O)c1cnccn1 quantitative_result=5.20
chemical_structure=N#CCNC(=O)[C@H](Cc1ccccc1)NC(=O)c1c[nH]c(=O)[nH]c1=O quantitative_result=5.90
chemical_structure=N#CCNC(=O)[C@H](Cc1ccccc1)NC(=O)c1cncc(Br)c1 quantitative_result=6.80
chemical_structure=N#CCNC(=O)[C@@H](Cc1ccccc1)NC(=O)c1ccccc1 quantitative_result=5.20

Kindly consider the entry below.
Item under review: CC(C)C[C@H](NC(=O)Cc1ccccc1)C(=O)NC1(C#N)CC1 . Reported pKi?
7.40
